# Tested on: HIV-1 IIIB
# assay summary: Anti-HIV activity in CEM cells (cytopathogenicity)
# Format: cell-based
value type: pEC50
Scale note: pEC50 = -log10(concentration in M).

Give the reported pEC50 for Cc1cn([C@H]2C[C@H](N=[N+]=[N-])[C@@H](CO)O2)c(=O)[nH]c1=O [AZT, reference compound] (system: HIV-1 IIIB).
7.24

----------
# Tested on: HIV-2 ROD
# assay summary: Anti-HIV activity in CEM cells (cytopathogenicity)
# Type: cell-based
# test settings: Human immunodeficiency virus 2, CCRF-CEM
value type: pEC50
Scale note: pEC50 = -log10(concentration in M).

What pEC50 value was documented for this compound, Cn1sc(=N)nc1-c1ccccc1 ?
4.82

----------
# assay summary: MTT-based viability assay in Jurkat cells
# test settings: human
value type: CC50 (µM)
Give the value, in units of µM, as a plain number.

What CC50 value was documented for this compound, Cn1sc(=N)nc1-c1ccccc1 [WDO-217] ?
75

----------
# assay summary: Cytostatic activity, CEM cell proliferation
# Type: cell-based, human
# test settings: human, CEM T-lymphocyte cells
value type: CC50 (µM)
Give the value, in units of µM, as a plain number.

What CC50 value was documented for this compound, Cn1sc(=N)nc1-c1ccccc1 [WDO-217] ?
94

----------
# Test system: MT-4 cells
# assay summary: Cytotoxicity in mock-infected MT-4 cells (MTT)
# Type: cell-based
value type: CC50

What CC50 value was documented for this compound, Cc1cn([C@H]2C[C@H](N=[N+]=[N-])[C@@H](CO)O2)c(=O)[nH]c1=O [AZT, reference compound] ?
> 35 µM

----------
# Tested on: human T-lymphocyte (CEM) cells
# assay summary: Cytostatic activity, CEM cell proliferation
# Assay type: cell-based
value type: CC50

What CC50 value was documented for this molecule, Cc1cn([C@H]2C[C@H](N=[N+]=[N-])[C@@H](CO)O2)c(=O)[nH]c1=O [AZT, reference compound] ?
> 125 µM

----------
# Tested on: HIV-1 IIIB
# assay summary: MT-4/MTT-assay, protection against virus-induced cytopathic effect
# Type: cell-based
# test settings: MT-4 cells, MTT, 5 days after infection
value type: EC50 (µM)
Give the value, in units of µM, as a plain number.

What EC50 value was documented for this compound, Cn1sc(=N)nc1-c1ccccc1 ?
7.9

What EC50 value was documented for this compound, Cc1cn([C@H]2C[C@H](N=[N+]=[N-])[C@@H](CO)O2)c(=O)[nH]c1=O [AZT, reference compound] ?
0.007

----------
# Test system: HIV-2 ROD
# assay summary: Anti-HIV activity in CEM cells (cytopathogenicity)
# Format: cell-based
value type: EC50 (nM)
Give the value, in units of nM, as a plain number.

What EC50 value was documented for this compound, Cc1cn([C@H]2C[C@H](N=[N+]=[N-])[C@@H](CO)O2)c(=O)[nH]c1=O [AZT, reference compound] ?
55

----------
# Tested on: HIV-2 ROD
# assay summary: MT-4/MTT-assay, protection against virus-induced cytopathic effect
# Type: cell-based
# test settings: MT-4 cells, MTT, 5 days after infection
value type: pEC50
Scale note: pEC50 = -log10(concentration in M).

What pEC50 value was documented for this compound, Cc1cn([C@H]2C[C@H](N=[N+]=[N-])[C@@H](CO)O2)c(=O)[nH]c1=O [AZT, reference compound] ?
8.30
